System: SNB-75
assay-name: NCI tumour cell line growth inhibition, 48 h
Active and inactive are the calls of the source. No stated cut-off is given here; in the data, active = GI50 up to about 1.1 µM and inactive = higher.
Labels: TRUE for active, FALSE for inactive

{"molecule": "CC(C)(CO)CNc1nc(N)nc(Cl)c1N", "category-label": "FALSE"}
{"molecule": "Nc1nc2c(nnn2C2C=C(CO)C(O)C2O)c(=O)[nH]1 (stereo unspecified)", "category-label": "FALSE"}
{"molecule": "COc1cc(S(=O)(=O)N/N=C/c2cc(Br)c(O)c(OC)c2)c(OC)cc1NC(C)=O", "category-label": "FALSE"}
{"molecule": "N#CC(NNC(=O)Cc1ccccc1)c1cccc(O)c1 (stereo unspecified)", "category-label": "FALSE"}
{"molecule": "Cc1ccnc2nc(-c3ccc4ccccc4c3)cc(O)c12", "category-label": "TRUE"}
{"molecule": "COC(=O)C(CCC1C=CCC1)/N=C\\c1ccccc1 (stereo unspecified)", "category-label": "FALSE"}
{"molecule": "O=C(NNC(=O)c1csc(NC(=S)NC2CCCCC2)n1)c1ccccc1", "category-label": "FALSE"}
{"molecule": "O=C1C(Cl)C(c2ccc([N+](=O)[O-])cc2)N1n1cnc2ccccc2c1=O (stereo unspecified)", "category-label": "FALSE"}
{"molecule": "N#Cc1c(N2CCCC2)nsc1NCc1ccccc1", "category-label": "FALSE"}
{"molecule": "CC(C)CCCC(C)[C@H]1CCC2[C@@H]3CCC4Cc5nc6c(nc5C[C@]4(C)C3CC[C@@]21C)CC1CC[C@@H]2C(C[C@@H](O)[C@@]3(C)C2C[C@@H]2OC4(CCC(C)CO4)C(C)[C@@H]23)[C@@]1(C)C6 (stereo partly specified)", "category-label": "FALSE"}
{"molecule": "O=C1C=CC(=O)N1c1ccc2c(c1)Cc1cc(NC(=O)C(F)(F)F)ccc1-2", "category-label": "FALSE"}

Where do these numbers come from? They come from ChEMBL document CHEMBL1201862.
